system: 519858-162-T-J1-PDC complex spheroid viability; test: Anticancer human tumor 519858-162-T-J1-PDC patient-derived colon adenocarcinoma cell line growth inhibition [GQUAD]; settings: curve of first compound; second compound 1 µM;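 further: spheroids exposed to compounds for 7 days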
pIC50: −log10 of the molar value.
endpoint.label: pIC50

Summary: COc1cccc2c1C(=O)c1c(O)c3c(c(O)c1C2=O)CC(O)(C(=O)CO)CC3OC1CC(N)C(O)C(C)O1 (stereo not given) + CN(C)c1ccc(Nc2c3ccc(NC(=O)CCN4CCCC4)cc3nc3cc(NC(=O)CCN4CCCC4)ccc23)cc1 , 519858-162-T-J1-PDC complex spheroid viability, pIC50 = 5.07

GET /values?item= O=C(c1cc(Cc2n[nH]c(=O)c3ccccc23)ccc1F)N1CCN(C(=O)C2CC2)CC1 + Cc1cnc(CNC(=O)c2c(=O)c3ccc(N4CCCN(C)CC4)nc3n3c2sc2ccccc23)cn1 &system= 519858-162-T-J1-PDC complex spheroid viability returns pIC50: < 5.00

So the reported pIC50 for COc1cc(C2c3cc4c(cc3C(OC3OC5COC(C)OC5C(O)C3O)C3COC(=O)C23)OCO4)cc(OC)c1O (stereo not given) + CN(C)c1ccc(Nc2c3ccc(NC(=O)CCN4CCCC4)cc3nc3cc(NC(=O)CCN4CCCC4)ccc23)cc1 , on 519858-162-T-J1-PDC complex spheroid viability, turned out to be < 5.00

Item: C=CC(=O)N1CCN(c2nc(=O)n(-c3c(C)ccnc3C(C)C)c3nc(-c4c(O)cccc4F)c(F)cc23)C(C)C1 (stereo not given) + CN(C)c1ccc(Nc2c3ccc(NC(=O)CCN4CCCC4)cc3nc3cc(NC(=O)CCN4CCCC4)ccc23)cc1 | System: 519858-162-T-J1-PDC complex spheroid viability | pIC50: < 5.00

Entry CC1COCCN1c1cc(C2(S(C)(=N)=O)CC2)nc(-c2ccnc3[nH]ccc23)n1 (stereo not given) + Cc1[nH]c2ccc(F)cc2c1-c1nc2c3cccnc3c3ncccc3c2[nH]1 , 519858-162-T-J1-PDC complex spheroid viability data, pIC50 value: < 5.00
